# Tested on: Trypanosoma brucei rhodesiense
# assay summary: Inhibitory activity against T.b. rhodesiense
# Format: functional, organism-based
property name: IC50 (µM)

> print(dat)
                                 smiles.str  observed.value
1  CN(C)c1nc(NCCCNCCCCCCCCCCCCNCCCNc2nc(N(C)C)nc(N(C)C)n2)nc(N(C)C)n1            0.81

(P) CNc1nc(NC)nc(NCCCNCCCCCCCCCNCCCNc2nc(NC)nc(NC)n2)n1
(Q) CN(C)c1nc(NCCCNCCCCCCCCCNCCCNc2nc(N(C)C)nc(N(C)C)n2)nc(N(C)C)n1
(R) CNc1nc(N)nc(NCCCNCCCCCCCCCCCCNCCCNc2nc(N)nc(NC)n2)n1
(S) CN(C)c1nc(N)nc(NCCCNCCCCCCCCCCCCNCCCNc2nc(N)nc(N(C)C)n2)n1
(T) Nc1nc(N)nc(NCCCNCCCCCCCCCNCCCNc2nc(N)nc(N)n2)n1
Task field, ranking: reported IC50, descending order. Quick reminder: the answer is the labels in the order asked.
T, P, R, S, Q
(T: 128 µM, P: 17 µM, R: 9.8 µM, S: 3.5 µM, Q: 1.2 µM)

(P) CNc1nc(N)nc(NCCCNCCCCCCCCCNCCCNc2nc(N)nc(NC)n2)n1
(Q) CNc1nc(NC)nc(NCCCNCCCCCCCCCNCCCN)n1
Which has the smaller recorded IC50, P or Q ? Give the label under which the chosen entry appears.
Q
(Q: 0.94 µM, P: 16 µM)

(a) CCCCCCCCCCCCCCCCCCNc1nc(NC)nc(NC)n1
(b) CN(C)c1nc(NCCCNCCCCCCCCCCCCNCCCN)nc(N(C)C)n1
(c) CNc1nc(NC)nc(NCCCNCCCCCCCCCCCCNCCCNc2nc(NC)nc(NC)n2)n1
Order the records, beginning with the lowest IC50 and ending with the highest. Quick reminder: the answer is the labels in the order asked.
b, c, a

(P) Nc1nc(N)nc(NCCCNCCCCCCCCCCCCNCCCNc2nc(N)nc(N)n2)n1
(Q) CNc1nc(CN(CCCNCCCCCCCCCNCCCN(Cc2nc(NC)nc(NC)n2)Cc2nc(NC)nc(NC)n2)Cc2nc(NC)nc(NC)n2)nc(NC)n1
(R) CNc1nc(CN(CCCNCCCCCCCCCCCCNCCCN(Cc2nc(NC)nc(NC)n2)Cc2nc(NC)nc(NC)n2)Cc2nc(NC)nc(NC)n2)nc(NC)n1
(S) Nc1nc(N)nc(CN(CCCNCCCCCCCCCNCCCN(Cc2nc(N)nc(N)n2)Cc2nc(N)nc(N)n2)Cc2nc(N)nc(N)n2)n1
Task field, ranking: reported IC50, descending order. Quick reminder: the answer is the labels in the order asked.
P, S, Q, R
(P: 16 µM, S: 4.02 µM, Q: 0.265 µM, R: 0.18 µM)

(I) CN(C)c1nc(N)nc(NCCCNCCCCCCCCCCCCNCCCN)n1
(II) CN(C)c1nc(N)nc(CN(CCCNCCCCCCCCCNCCCN(Cc2nc(N)nc(N(C)C)n2)Cc2nc(N)nc(N(C)C)n2)Cc2nc(N)nc(N(C)C)n2)n1
Which of the two gives a bigger number for IC50: I or II ? Give the label under which the chosen entry appears.
I
